# measured target: hSTING-R232 (Homo sapiens (Human), UniProt Q86WV6, H232R)
# Sequence (Q86WV6 140-379 H232R): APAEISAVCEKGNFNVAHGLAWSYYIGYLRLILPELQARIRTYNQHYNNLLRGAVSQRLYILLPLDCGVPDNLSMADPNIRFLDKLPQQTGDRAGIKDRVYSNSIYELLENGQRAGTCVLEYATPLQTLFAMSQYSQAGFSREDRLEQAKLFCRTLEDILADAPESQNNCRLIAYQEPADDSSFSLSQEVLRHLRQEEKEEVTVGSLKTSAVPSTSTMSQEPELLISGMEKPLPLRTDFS
# test method notes: STING differential scanning fluorimetry (DSF) assay, WT human STING
# condition context: WT (R232) human STING aa140-379, net shift in melting temperature
measured metric: WT_DSF_hSWAT Tm Shift (° C.)

Cc1cccc(-c2ccc3c(=O)c4ccc(Cl)c(Cl)c4n(CC(=O)O)c3c2)c1 B (“B” = 0-2° C.)
[N-]=[N+]=NCc1c(Cl)ccc2c(=O)c3ccccc3n(CC(=O)O)c12 B (“B” = 0-2° C.)
O=C(O)Cn1c2cc(-c3ccc(Cl)cc3)ccc2c(=O)c2ccc(Cl)c(Cl)c21 B (“B” = 0-2° C.)

---

# measured target: UniProt Q3TBT3
# test method notes: STING differential scanning fluorimetry (DSF) assay, mouse STING
# condition context: net shift in melting temperature
measured metric: MOUSE DSF_6xHIS-SUMO Tm Shift (° C.)

Some molecules with recorded MOUSE DSF_6xHIS-SUMO Tm Shift (° C.):
mol	data value
CS(=O)(=O)Nc1cccc(Nc2ccc3c(=O)c4ccc(Cl)c(Cl)c4n(CC(=O)O)c3c2)c1	D (“D” > 15° C.)
O=C(O)Cn1c2ccccc2c(=O)c2ccc(Cl)c(OCCCO)c21	C (“C” = 5-15° C.)
CC(C)c1ccc2c(=O)c3ccc(Cl)c(-c4ccccc4)c3n(CC(=O)O)c2c1	C (“C” = 5-15° C.)
COc1c(Cl)ccc2c(=O)c3ccc(NC4CCCC4)cc3n(CC(=O)O)c12	D (“D” > 15° C.)
CCOc1c(Cl)ccc2c(=O)c3ccc(C(C)C)cc3n(CC(=O)O)c12	D (“D” > 15° C.)

// moving on: another record for MOUSE DSF_6xHIS-SUMO Tm Shift (° C.)
Challenge: Quick one: give measured MOUSE DSF_6xHIS-SUMO Tm Shift (° C.) for CCN(C)c1c(Cl)ccc2c(=O)c3ccc(C)cc3n(CC(=O)O)c12
Response given: D (“D” > 15° C.)
